target: MetRS (C. parvum) (Cryptosporidium parvum)
Sequence (Q5CVN0 entry or part of it): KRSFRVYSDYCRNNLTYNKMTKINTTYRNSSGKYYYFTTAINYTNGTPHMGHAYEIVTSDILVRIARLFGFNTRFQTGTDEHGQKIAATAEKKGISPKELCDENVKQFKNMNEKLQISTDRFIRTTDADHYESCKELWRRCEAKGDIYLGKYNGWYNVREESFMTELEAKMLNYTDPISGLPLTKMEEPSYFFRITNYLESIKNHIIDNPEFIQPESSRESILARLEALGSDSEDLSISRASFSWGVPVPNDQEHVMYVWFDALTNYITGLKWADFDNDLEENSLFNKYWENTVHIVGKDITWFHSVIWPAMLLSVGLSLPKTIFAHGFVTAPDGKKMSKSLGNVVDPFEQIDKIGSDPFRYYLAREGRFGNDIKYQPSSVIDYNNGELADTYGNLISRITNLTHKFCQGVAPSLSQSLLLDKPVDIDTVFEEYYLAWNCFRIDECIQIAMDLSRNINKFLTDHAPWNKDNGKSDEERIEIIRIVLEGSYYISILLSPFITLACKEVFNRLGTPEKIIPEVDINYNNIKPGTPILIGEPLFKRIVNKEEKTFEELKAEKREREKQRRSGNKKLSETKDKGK
experiment.summary: MetRS (C. parvum) enzyme inhibition
Format: biochemical
experimental.setup: read-out: (C) MetRS (C. parvum) IC50
pIC50: −log10 of the molar value.
quantity.measured: pIC50

# annotated cases, reported pIC50 shown
QUERY: Looking for the measured pIC50 of Fc1ccc2[nH]c(Cc3cn4c(-c5cc(Cl)cc(Cl)c5)cccc4n3)nc2n1 , can you help?
RESULT: 6.09

QUERY: Looking for the measured pIC50 of COc1ccc(-c2ccc(N)c3nc(Cc4nc5cc(Cl)ccc5[nH]4)cn23)c(Cl)c1 , can you help?
RESULT: 7.12

QUERY: Looking for the measured pIC50 of COc1cc(Cl)c(-c2cccc3nc(Cc4nc5nc(Cl)ccc5[nH]4)cn23)cc1Cl , can you help?
RESULT: 6.18

QUERY: Looking for the measured pIC50 of Clc1ccc(Cn2cnc(Cc3nc4nc(Cl)ccc4[nH]3)c2)c(Cl)c1 , can you help?
RESULT: 7.04

QUERY: Looking for the measured pIC50 of COc1cc(Cl)c(-c2cnn3c2CN(Cc2nc4nc(Cl)ccc4[nH]2)CC3)cc1OC , can you help?
RESULT: 7.19

QUERY: Looking for the measured pIC50 of COc1cc(Cl)c(-c2cccc3nc(Cc4nc5nc(Cl)ccc5[nH]4)cn23)cc1OC , can you help?
RESULT: 7.39

QUERY: Looking for the measured pIC50 of O=C(O)Cn1c(C(=O)c2ccc(Cl)cc2Cl)cn(Cc2nc3ccc(Cl)nc3[nH]2)c1=O , can you help?
RESULT: 7.27

QUERY: Looking for the measured pIC50 of COc1ccc(-c2nn(C)c3c2CN(Cc2nc4nc(Cl)ccc4[nH]2)CC3)c(Cl)c1 , can you help?
RESULT: 6.95

QUERY: Looking for the measured pIC50 of COc1ccc(-c2c3c(nn2C)CCN(Cc2nc4nc(Cl)ccc4[nH]2)C3)c(Cl)c1 , can you help?
RESULT: 6.35

QUERY: Looking for the measured pIC50 of COc1ccc(-c2cn(Cc3ccccc3)c3c2CN(Cc2nc4nc(Cl)ccc4[nH]2)CC3)c(Cl)c1 , can you help?
RESULT: 7.10

A. CSc1nc(Cc2ccc(Cl)cc2Cl)cn1Cc1nc2ccc(F)nc2[nH]1
B. COc1ccc(-c2cccn3c(SC)c(Cc4nc5nc(Cl)ccc5[nH]4)nc23)c(Cl)c1
C. COc1ccc(-c2nccn3c(=O)n(Cc4nc5c(Cl)c(Cl)ccc5[nH]4)cc23)c(Cl)c1
D. NCCn1c(Cc2ccc(Cl)cc2Cl)cn(Cc2nc3ccc(Cl)nc3[nH]2)c1=O
QUERY: // smallest pIC50 at index 0, largest at the end Provide your answer as the labels ordered per the instruction.
RESULT: B, C, D, A
(B: 6.33, C: 6.86, D: 7.13, A: 7.39)

a. COc1ccc(-c2cccc3c2CN(Cc2nc4nc(Cl)ccc4[nH]2)CC3)c(Cl)c1
b. COc1cc(Cl)c(-c2nccc3nc(Cc4nc5nc(Cl)ccc5[nH]4)cn23)cc1OC
QUERY: For the pair a and b , which member has the lower pIC50 number? // caller expects the label of the chosen entry
RESULT: a
(a: 6.60, b: 7.25)
